Target: human properdin (human, UniProt P27918 28-469)
Sequence (P27918 28-469 limits assumed): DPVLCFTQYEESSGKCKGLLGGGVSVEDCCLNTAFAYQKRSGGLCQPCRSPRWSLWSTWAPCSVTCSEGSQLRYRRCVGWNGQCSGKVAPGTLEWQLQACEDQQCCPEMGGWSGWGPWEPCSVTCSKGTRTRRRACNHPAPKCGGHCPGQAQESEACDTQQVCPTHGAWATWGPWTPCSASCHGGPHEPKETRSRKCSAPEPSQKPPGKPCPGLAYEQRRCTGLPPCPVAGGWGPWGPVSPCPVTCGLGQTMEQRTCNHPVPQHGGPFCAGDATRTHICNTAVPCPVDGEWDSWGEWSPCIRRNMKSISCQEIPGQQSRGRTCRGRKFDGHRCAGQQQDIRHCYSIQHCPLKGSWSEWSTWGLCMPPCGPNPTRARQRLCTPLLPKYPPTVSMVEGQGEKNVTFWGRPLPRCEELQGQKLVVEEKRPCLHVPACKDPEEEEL
Test: properdin binding assay (method of Example 8, not restated)
Define the label as criterion met when Affinity is strictly less than 300 pM and as criterion not met in all remaining cases.

Identify whether the binder NMT17-100 (antibody, V domains shown) VH: EVQLVQSGAEVKKPGASVKVSCKASGYIFTNYPIHWVRQAPGQGLEWMGFIDPGGGYDEPDERFRDRVTMTADTSTSTAYMELSSLRSEDTAVYYCARRGGGYYLDYWGQGTTVTVSS VL: DIQMTQSPSSLSASVGDRVTITCRASQDISFFLNWYQQKPGKAPKLLIYYTSRYHSGVPSRFSGSGSGTDFTLTISSLQPEDFATYYCQHGSTLPWTFGQGTKLEIK records Affinity below 300 pM. criterion met

Identify whether the binder NMT18-100 (antibody, V domains shown) VH: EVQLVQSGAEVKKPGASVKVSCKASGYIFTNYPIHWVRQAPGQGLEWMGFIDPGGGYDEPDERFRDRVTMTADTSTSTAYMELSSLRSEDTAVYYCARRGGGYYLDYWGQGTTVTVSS VL: DIQMTQSPSSLSASVGDRVTITCRASQDISFFLNWYQQKPGKAPKLLIYYTSRYHSGVPSRFSGSGSGTDFTLTISSLQPEDFATYYCQHGQTLPWTFGQGTKLEIK records Affinity below 300 pM. criterion not met

Identify whether the binder NMT18-101 (antibody, V domains shown) VH: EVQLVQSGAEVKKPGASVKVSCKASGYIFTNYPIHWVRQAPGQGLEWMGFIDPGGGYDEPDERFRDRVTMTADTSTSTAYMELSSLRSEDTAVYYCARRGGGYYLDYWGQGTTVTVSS VL: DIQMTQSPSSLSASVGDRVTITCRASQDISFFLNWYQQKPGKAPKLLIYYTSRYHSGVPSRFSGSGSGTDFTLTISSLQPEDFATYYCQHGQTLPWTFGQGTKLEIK records Affinity below 300 pM. criterion not met

Identify whether the binder NMT28-101 (antibody, V domains shown) VH: EVQLVQSGAEVKKPGASVKVSCKASGYIFTNYPIHWVRQAPGQGLEWMGFIDPGGGYDEPDERFRDRVTMTADTSTSTAYMELSSLRSEDTAVYYCARRGGGYYLDYWGQGTLVTVSS VL: DIQMTQSPSSLSASVGDRVTITCRASQDISFFLNWYQQKPGKAPKLLIYYTSRYHSGVPSRFSGSGSGTDFTLTISSLQPEDFATYYCQHGQTLPWTFGQGTKVEIK records Affinity below 300 pM. criterion not met

Identify whether the binder NMT28-100 (antibody, V domains shown) VH: EVQLVQSGAEVKKPGASVKVSCKASGYIFTNYPIHWVRQAPGQGLEWMGFIDPGGGYDEPDERFRDRVTMTADTSTSTAYMELSSLRSEDTAVYYCARRGGGYYLDYWGQGTLVTVSS VL: DIQMTQSPSSLSASVGDRVTITCRASQDISFFLNWYQQKPGKAPKLLIYYTSRYHSGVPSRFSGSGSGTDFTLTISSLQPEDFATYYCQHGQTLPWTFGQGTKVEIK records Affinity below 300 pM. criterion not met

Identify whether the binder NMT17-101 (antibody, V domains shown) VH: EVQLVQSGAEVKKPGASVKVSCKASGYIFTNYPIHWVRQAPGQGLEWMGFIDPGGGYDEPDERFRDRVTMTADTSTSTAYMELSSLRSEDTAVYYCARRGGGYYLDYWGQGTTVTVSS VL: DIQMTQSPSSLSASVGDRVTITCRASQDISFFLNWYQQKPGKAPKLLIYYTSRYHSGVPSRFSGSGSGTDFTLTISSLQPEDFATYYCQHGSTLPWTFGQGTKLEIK records Affinity below 300 pM. criterion not met
